measured target: NIK (Homo sapiens, UniProt Q99558)
Construct: Both assays utilize a truncated form of NIK containing only the catalytic domain; made in house; host or cells: baculovirus expression system (insect cells implied)
Sequence (Q99558 400-655 limits assumed): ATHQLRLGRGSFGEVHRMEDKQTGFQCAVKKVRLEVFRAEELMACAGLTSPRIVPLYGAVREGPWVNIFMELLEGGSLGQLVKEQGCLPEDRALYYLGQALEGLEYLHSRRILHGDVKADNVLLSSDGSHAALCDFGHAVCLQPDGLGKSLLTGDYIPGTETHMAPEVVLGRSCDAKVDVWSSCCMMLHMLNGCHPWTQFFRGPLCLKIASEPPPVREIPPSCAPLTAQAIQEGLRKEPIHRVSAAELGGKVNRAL
assay details: homogenous time resolved fluorescence (HTRF) assay for NIK Ki measurement
Assay type: biochemical
condition summary: truncated NIK (catalytic domain only), autophosphorylation; 10 nM enzyme; 20, 100, 200 or 500 μM ATP; room temperature, 2 hours; read-out: Ki activity in the homogenous time resolved fluorescence (HTRF) assay for NIK
value type: Ki

COCCN1Cc2cnc(N)nc2-c2c(n(C)c3ccc(C#CC4(O)CCCC4)cc23)C1=O ... < 1 µM
Nc1nccc(C2=CC3(CCOCC3)c3ccc(C#CC4(O)CCCC4)cc32)n1 ... < 1 µM

Incoming: Name the reported Ki value associated with the compound `Cc1ncc2c(n1)-c1c([nH]c3ccc(C#CC(C)(C)O)cc13)CCC2`
Outgoing: 1 to 30 µM

Incoming: GET /values?readout=Ki&item= Cc1nc(C(C)(O)C#Cc2ccc3c(c2)N(c2ccnc(N)n2)CC3)sc1C (centres unmarked)
Outgoing: 1 to 30 µM

Incoming: Look at this compound and give its reported Ki. `COc1cc(C#CC2(O)CCCC2)cc2c1ccn2-c1ccnc(N)n1`
Outgoing: < 1 µM

Incoming: What does the data say about its Ki? Entry: CN1CCC(n2cc(-c3nc(N)ncc3Cl)c3cc(C#CC4(O)CCCC4)ccc32)C1 (centres unmarked)
Outgoing: < 1 µM

Incoming: Would you kindly share the measured Ki for `CNc1nc(N2CC3(CCOCC3)c3ccc(C#CC4(O)CCCC4)cc32)c2nc[nH]c2n1` ?
Outgoing: < 1 µM

Incoming: Which Ki value belongs to `COc1ccc(C#C[C@@](C)(O)c2nccs2)cc1Nc1nc(N)ncc1Cl` ?
Outgoing: < 1 µM

* * *

In this section we review reported Ki values for a set of molecules.
measured target: NIK (Homo sapiens, UniProt Q99558)
Construct: Both assays utilize a truncated form of NIK containing only the catalytic domain; made in house; host or cells: baculovirus expression system (insect cells implied)
assay details: homogenous time resolved fluorescence (HTRF) assay for NIK Ki measurement
Assay type: biochemical
condition summary: truncated NIK (catalytic domain only), autophosphorylation; 10 nM enzyme; 20, 100, 200 or 500 μM ATP; room temperature, 2 hours; read-out: Ki activity in the homogenous time resolved fluorescence (HTRF) assay for NIK

Use the examples below as a reference point.
CNc1ncc2c(n1)-c1c(nc3ccc(C#CC(C)(C)O)cn13)CCC2 [Example 252] ... 1000 to 30000 nM
CC(O)(C#Cc1ccc2c(c1)N(c1ccncc1)CC2(CO)CO)c1nccs1 (centres unmarked) [Example 59] ... < 1000 nM
Nc1ncc(OCc2cccnc2)c(-c2c[nH]c3ccc(C#CC4(O)CCCC4)cc23)n1 [Example 232] ... < 1000 nM
CC(O)(C#Cc1ccc(CN2CCOCC2)c(Nc2nc(N)ncc2Cl)c1)c1nccs1 (centres unmarked) [Example 157] ... < 1000 nM
CC1(C)CN(c2nc(N)ncc2Cl)c2cc(C#C[C@@](C)(O)c3nccs3)ccc21 (single isomer, unassigned) [Example 40] ... < 1000 nM

Incoming: Which measured Ki value corresponds to CN1CC[C@@]2(C1)CN(c1nc(N)ncc1Cl)c1cc(C#C[C@@](C)(O)c3nccs3)ccc12 (relative stereo) [Example 195] ?
Outgoing: < 1000 nM

Incoming: What does the record list as Ki for CC(O)(C#Cc1cccc(Nc2ccncn2)n1)c1nccs1 (centres unmarked) [Example 173] ?
Outgoing: < 1000 nM

Incoming: Which value of Ki has been reported for Nc1ncc(OCCOCCN2CCOCC2)c(-c2c[nH]c3ccc(C#CC4(O)CCCC4)cc23)n1 [Example 231] in the records?
Outgoing: < 1000 nM

Incoming: # input molecule: CC(C)(C#Cc1ccc2c(c1)N(c1nc(N)ncc1Cl)CC2(C)CO)CO (single isomer, unassigned) [Example 58] ; wanted: its Ki
Outgoing: < 1000 nM

Incoming: # Ki lookup, item Cc1cnc(C(C)(O)C#Cc2ccc3c(c2)N(c2nc(N)ncc2Cl)CC32CN(C)C2)s1 (centres unmarked) [Example 301]
Outgoing: < 1000 nM

Incoming: Any idea what its Ki is? The molecule is CC(O)(C#Cc1ccc(F)c(Nc2nc(N)ncc2Cl)c1)c1nccs1 (centres unmarked) [Example 166]
Outgoing: < 1000 nM
